Source listed as the supplement of paper PMC9233669.

Attribute: self-aminoacylation
- Test system: biotinyl-Leu-oxazolone
- test name: self-aminoacylation, catalytic enhancement (BLO) (fold over background); higher = more active; k-Seq, kA / k0A0; sequences stand for … in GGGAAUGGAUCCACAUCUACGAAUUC…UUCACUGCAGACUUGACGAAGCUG
Variants at the floor of the assay were thinned out.
Enter the number alone.

Recorded results for 3 sequences are shown here.
{"sequence content": "AUUCACGGAGGUCAUCGGGUG [Fam2.2 aminoacylation ribozyme variant]", "readout value": 9.33}
{"sequence content": "AUUACCCAGGUCAUGGAGUGA [Fam2.1 aminoacylation ribozyme variant]", "readout value": 4.67}
{"sequence content": "AAAUUUGCUACUAGUCGCAAG [Fam3.1 aminoacylation ribozyme variant]", "readout value": 1.59}

Could you now consider this next sequence?
Inquiry: // returns reported self-aminoacylation for input AAGUUUGCUAAUAGUCGCAUG [Fam3.1 aminoacylation ribozyme variant]
Reply text: 0.932
